run-description: Half life in Sprague-Dawley rat at 1 mg/kg, iv
Format: ADME, organism-based
experimental-conditions: in vivo
measured-parameter: half-life (h)
Numbers only, in h.

Prompt: Recorded half-life for [2H]C([2H])([2H])C([2H])([2H])[S+]([O-])c1ccccc1Nc1nc(Nc2cc(NC(=O)C=C)c(N(C)CCN(C)C)cc2OC)ncc1Cl (single isomer, unassigned; (-)) , please?
Completion: 1.06

###

run-description: MRT (0 to t) in Sprague-Dawley rat at 10 mg/kg, po
Assay type: ADME, organism-based
experimental-conditions: in vivo
measured-parameter: MRT last

Prompt: Entry [2H]C([2H])([2H])C([2H])([2H])[S+]([O-])c1ccccc1Nc1nc(Nc2cc(NC(=O)C=C)c(N(C)CCN(C)C)cc2OC)ncc1Cl (single isomer, unassigned; (-)) : reported MRT last = ?
Completion: 3.57 h
